The reported measurements were obtained from ChEMBL document CHEMBL5120892.

system: HCC1954; test: Antiproliferative activity against human HCC1954 cells measured after 72 hrs by SRB assay; assay type: functional
So basically, the class depends on measured GI50, and the ranges are low = under 1000 nM, mid = from 1000 nM up to 2000 nM, high = 2000 nM and over

Solved cases (2 shown):
Smiles String	Group Label
O=C1c2ccccc2C(=O)c2c(O)c(CCl)cc(O)c21	low
CC1(C)CCC2=C(O1)c1ccccc1C(=O)C2=O	high

Entry CC1=C(Br)C(=O)c2ccccc2C1=O belongs to which category? mid

Entry COC(=O)/C=C(/CC1=C(CCC(=O)CC2(C)OCCO2)C(=O)c2ccccc2C1=O)OC belongs to which category? high

Entry CC=CCC1=C(O)C(=O)c2ccccc2C1=O belongs to which category? high

Entry COc1ccc2c(c1)C(=O)C=CC2=O belongs to which category? high

Entry O=C1C=CC(=O)c2c(O)ccc(O)c21 belongs to which category? low
